Just for reference, patent US6737383B1 is where these values come from.

tested on: pigweed; assay: Test B pre/postemergence pigweed; type: in vivo, Amaranthus retroflexus; conditions: Rate 500 g/ha, Postemergence; scale 0 to 10, 0 no effect, 10 complete control
Would you please tag the item yes when its Redroot pigweed plant response rating is 5 or above, and no when it is below?

- structure_as_smiles: "C=CCn1c(=O)on(C(=O)N(c2ccccc2)C(C)C)c1=O"
  label_value: "yes"
- structure_as_smiles: "CC(C)N(C(=O)n1oc(=O)n(CC(=O)OC(C)(C)C)c1=O)c1ccc(F)cc1"
  label_value: "no"
- structure_as_smiles: "CCN(C(=O)n1oc(=O)n(-c2c(C)cc(C)cc2C)c1=O)C1CCCCC1"
  label_value: "no"
- structure_as_smiles: "CCCn1c(=O)on(C(=O)N(c2ccc(Cl)cc2)C(C)C)c1=O"
  label_value: "yes"

----------
test system: wild oat; experiment: Test B pre/postemergence wild oat; assay type: in vivo, Avena fatua; conditions: Preemergence, Rate 250 g/ha; scale of 0 to 10 where 0 is no effect and 10 is complete control
This listing pairs compounds with measured Wild oats plant response rating.

- compound: "CCN(CC)C(=O)n1oc(=O)n(C2CC2)c1=O"
  Wild oats plant response rating: 0
- compound: "CC(C)C(C)n1c(=O)on(C(=O)N(c2ccc(F)cc2F)C(C)C)c1=O (stereo not shown)"
  Wild oats plant response rating: 10
- compound: "CC(C)N(C(=O)n1oc(=O)n(CC#C[Si](C)(C)C)c1=O)c1ccc(F)cc1"
  Wild oats plant response rating: 0
- compound: "CC(C)N(C(=O)n1oc(=O)n(-c2ccc3ccccc3c2)c1=O)c1ccc(F)cc1F"
  Wild oats plant response rating: 0
- compound: "CC(C)N(C(=O)n1oc(=O)n(C2CCC2)c1=O)c1ccccc1"
  Wild oats plant response rating: 8
- compound: "Cc1c(-n2c(=O)on(C(=O)N(c3ccc(F)cc3F)C(C)C)c2=O)ccc2ccccc12"
  Wild oats plant response rating: 0
- compound: "Cc1ccccc1-n1c(=O)on(C(=O)N(c2ccc(N(C)C)cc2)C(C)C)c1=O"
  Wild oats plant response rating: 0
- compound: "CC(C)N(C(=O)n1oc(=O)n(C2CCCCO2)c1=O)c1ccc(F)cc1 (stereo not shown)"
  Wild oats plant response rating: 0
- compound: "CC(C)=CCn1c(=O)on(C(=O)N(c2ccc(F)cc2)C(C)C)c1=O"
  Wild oats plant response rating: 5
- compound: "CC(C)N(C(=O)n1oc(=O)n(CCCN(C)C)c1=O)c1ccc(F)cc1"
  Wild oats plant response rating: 0

----------
Measured Soybean plant response rating values are reported for all entries that follow.
tested on: soybean; experiment: Test B pre/postemergence soybean; type: in vivo, Glycine max; conditions: Preemergence, Rate 500 g/ha; scale 0 to 10, 0 is no effect, 10 is complete control
endpoint_name: Soybean plant response rating

- compound: "CC(C)N(C(=O)n1oc(=O)n(CCCl)c1=O)c1ccc(Cl)cc1"
  reported_result: 0
- compound: "COC(OC)C(C)n1c(=O)on(C(=O)N(c2ccc(F)cc2F)C(C)C)c1=O (centres unmarked)"
  reported_result: 3
- compound: "CC(C)N(C(=O)n1oc(=O)n(C(C)C(=O)N(C)C)c1=O)c1ccc(Cl)cc1 (centres unmarked)"
  reported_result: 1
- compound: "CC(C)Cn1c(=O)on(C(=O)N(c2ccc(Cl)cc2)C(C)C)c1=O"
  reported_result: 0
- compound: "COC(CCl)n1c(=O)on(C(=O)N(c2ccc(Cl)cc2)C(C)C)c1=O (centres unmarked)"
  reported_result: 2
